system: DOHH2 cells; assay: Cell proliferation assay (MTS) in DOHH2 cells, mechanism-based assay for BTK inhibition; details: Homo sapiens, DOHH-2, 120 h incubation, 5000 cells/well
property-label: IC50 (nM)

| smiles-notation | system | test-result |
| --- | --- | --- |
| C=CC(=O)N1CC[C@@H](c2cn(-c3ccc(Oc4ccccc4)cc3)c3c(N)n[nH]c(=O)c23)C1 | DOHH2 cells | 32 |
| CC#CC(=O)N1CC[C@H](c2cn(-c3ccc(Oc4c(F)cccc4F)cc3)c3c(N)n[nH]c(=O)c23)C1 | DOHH2 cells | 369 |
| C=CC(=O)N1CCC[C@@H](c2nn(-c3ccc(Oc4cc(F)cc(F)c4)cc3)c3c(N)n[nH]c(=O)c23)C1 | DOHH2 cells | 224 |

---

Each entry below carries its reported pIC50.
test system: DOHH2 cells; experiment: Cell proliferation assay (MTS) in DOHH2 cells, mechanism-based assay for BTK inhibition; settings: Homo sapiens, DOHH-2, 120 h incubation, 5000 cells/well
pIC50: −log10 of the molar value.

| compound | pIC50 |
| --- | --- |
| C=CC(=O)N1CCC(c2nn(-c3ccc(Oc4ccccc4)cc3)c3c(N)n[nH]c(=O)c23)C1 (stereo not drawn) | 7.60 |
| C=CC(=O)N1CCC[C@H](c2cn(-c3ccc(Oc4ccccc4F)cc3)c3c(N)n[nH]c(=O)c23)C1 | 7.48 |
| CC#CC(=O)N1CCC[C@@H](c2cn(-c3ccc(Oc4ccccc4F)cc3)c3c(N)n[nH]c(=O)c23)C1 | 6.79 |
| CC#CC(=O)N1CCC(c2nn(-c3ccc(Oc4c(F)cccc4F)cc3)c3c(N)n[nH]c(=O)c23)C1 (stereo not drawn) | 6.52 |
| C=CC(=O)N1CCC[C@H](c2nn(-c3ccc(Oc4cccc(F)c4F)cc3)c3c(N)n[nH]c(=O)c23)C1 | 6.83 |
| C=CC(=O)N1CCC[C@H](c2cn(-c3ccc(Oc4cccc(F)c4F)cc3)c3c(N)n[nH]c(=O)c23)C1 | 6.76 |
| C=CC(=O)N1CCC[C@H](c2nn(-c3ccc(Oc4ccccc4F)cc3)c3c(N)n[nH]c(=O)c23)C1 | 6.61 |
| CC#CC(=O)N1CC[C@H](c2cn(-c3ccc(Oc4ccccc4)cc3)c3c(N)n[nH]c(=O)c23)C1 | 6.84 |
| CC#CC(=O)N1CCC(c2nn(-c3ccc(Oc4ccccc4)cc3)c3c(N)n[nH]c(=O)c23)C1 (stereo not drawn) | 6.75 |
| CC#CC(=O)N1CCC(c2cn(-c3ccc(Oc4ccccc4)cc3)c3c(N)n[nH]c(=O)c23)C1 (stereo not drawn) | 6.61 |
| CN1CC[C@@H]1/C=C/C(=O)N1CCC[C@@H](c2cn(-c3ccc(Oc4ccccc4)cc3)c3c(N)n[nH]c(=O)c23)C1 | 6.13 |
| C=CC(=O)N1CCC(c2cn(-c3ccc(Oc4ccccc4)cc3)c3c(N)n[nH]c(=O)c23)CC1 | 7.11 |
| C=CC(=O)N1CCC[C@H](c2cn(-c3ccc(Oc4cccc(F)c4)cc3)c3c(N)n[nH]c(=O)c23)C1 | 6.23 |
| C=CC(=O)N1CCC[C@H](c2cn(-c3ccc(Oc4ccccc4)cc3)c3c(N)n[nH]c(=O)c23)C1 | 7.13 |
| CC#CC(=O)N1CCC[C@H](c2cn(-c3ccc(Oc4ccccc4)cc3)c3c(N)n[nH]c(=O)c23)C1 | 6.59 |

---

system: DOHH2 cells; assay: Cell proliferation assay (MTS) in DOHH2 cells, mechanism-based assay for BTK inhibition; details: Homo sapiens, DOHH-2, 120 h incubation, 5000 cells/well

| compound | unit-text | IC50 |
| --- | --- | --- |
| C=CC(=O)N1CCC[C@@H](c2cn(-c3ccc(Oc4ccccc4)cc3)c3c(N)n[nH]c(=O)c23)C1 [Example 11] | nM | 40 |
| C=CC(=O)N1CCC[C@H](c2cn(-c3ccc(Oc4cc(F)cc(F)c4)cc3)c3c(N)n[nH]c(=O)c23)C1 [Example 40] | nM | 375 |
| C=CC(=O)N1CC(c2cn(-c3ccc(Oc4ccccc4F)cc3)c3c(N)n[nH]c(=O)c23)C1 [Example 111] | nM | 261 |
| C=CC(=O)N1CC[C@@H](c2cn(-c3ccc(Oc4c(F)cccc4F)cc3)c3c(N)n[nH]c(=O)c23)C1 [Example 21] | nM | 100 |

---

tested on: DOHH2 cells; experiment: Cell proliferation assay (MTS) in DOHH2 cells, mechanism-based assay for BTK inhibition; details: Homo sapiens, DOHH-2, 120 h incubation, 5000 cells/well
property-label: log10 IC50 (log10 of the value in nM)

| molecule | property-label | test-result |
| --- | --- | --- |
| C=CC(=O)N1CC[C@H](c2cn(-c3ccc(Oc4ccccc4)cc3)c3c(N)n[nH]c(=O)c23)C1 [Example 10] | log10 IC50 | 1.30 |
| C=CC(=O)N1CC[C@H](c2nn(-c3ccc(Oc4ccccc4)cc3)c3c(N)n[nH]c(=O)c23)C1 [Example 14] | log10 IC50 | 1.70 |
| C=CC(=O)N1CCC[C@@H](c2nn(-c3ccc(Oc4ccccc4F)cc3)c3c(N)n[nH]c(=O)c23)C1 [Example 53] | log10 IC50 | 2.29 |
| C=CC(=O)N1CCC[C@H](c2nn(-c3ccc(Oc4ccccc4)cc3)c3c(N)n[nH]c(=O)c23)C1 [Example 16] | log10 IC50 | 1.57 |
| CN(C)C/C=C/C(=O)N1CCC[C@@H](c2cn(-c3ccc(Oc4ccccc4F)cc3)c3c(N)n[nH]c(=O)c23)C1 [Example 104] | log10 IC50 | 2.18 |
| Nc1n[nH]c(=O)c2c([C@@H]3CCN(C(=O)/C=C/[C@H]4CCN4)C3)cn(-c3ccc(Oc4ccccc4)cc3)c12 [Example 97] | log10 IC50 | 2.85 |
| CC#CC(=O)N1CC[C@H](c2nn(-c3ccc(Oc4ccccc4F)cc3)c3c(N)n[nH]c(=O)c23)C1 [Example 74] | log10 IC50 | 2.59 |

---

test system: DOHH2 cells; test: Cell proliferation assay (MTS) in DOHH2 cells, mechanism-based assay for BTK inhibition; settings: Homo sapiens, DOHH-2, 120 h incubation, 5000 cells/well
pIC50: −log10 of the molar value.
property-label: pIC50

| smiles-notation | system | test-result |
| --- | --- | --- |
| CC#CC(=O)N1CCC[C@H](c2cn(-c3ccc(Oc4c(F)cccc4F)cc3)c3c(N)n[nH]c(=O)c23)C1 | DOHH2 cells | 6.36 |
| CC#CC(=O)N1CCC[C@H](c2cn(-c3ccc(Oc4ccccc4F)cc3)c3c(N)n[nH]c(=O)c23)C1 | DOHH2 cells | 6.35 |
| COC/C=C/C(=O)N1CC[C@@H](c2cn(-c3ccc(Oc4ccccc4F)cc3)c3c(N)n[nH]c(=O)c23)C1 | DOHH2 cells | 6.19 |
| C=CC(=O)N1CC[C@H](c2nn(-c3ccc(Oc4cc(F)cc(F)c4)cc3)c3c(N)n[nH]c(=O)c23)C1 | DOHH2 cells | 6.49 |
| C=CC(=O)N1CCC[C@H](c2cn(-c3ccc(Oc4c(F)cccc4F)cc3)c3c(N)n[nH]c(=O)c23)C1 | DOHH2 cells | 7.51 |
| C=CC(=O)N1CCC[C@@H](c2cn(-c3ccc(Oc4cccc(F)c4F)cc3)c3c(N)n[nH]c(=O)c23)C1 | DOHH2 cells | 7.24 |
| C=CC(=O)N1CC[C@H](c2cn(-c3ccc(Oc4cccc(F)c4F)cc3)c3c(N)n[nH]c(=O)c23)C1 | DOHH2 cells | 6.59 |
| C=CC(=O)N1CCC[C@H](c2nn(-c3ccc(Oc4c(F)cccc4F)cc3)c3c(N)n[nH]c(=O)c23)C1 | DOHH2 cells | 6.72 |
| CC#CC(=O)N1CC[C@H](c2nn(-c3ccc(Oc4c(F)cccc4F)cc3)c3c(N)n[nH]c(=O)c23)C1 | DOHH2 cells | 6.16 |
| C=CC(=O)N1CC[C@H](c2nn(-c3ccc(Oc4ccccc4F)cc3)c3c(N)n[nH]c(=O)c23)C1 | DOHH2 cells | 7.22 |
| C=CC(=O)N1CC[C@H](c2cn(-c3ccc(Oc4cccc(F)c4)cc3)c3c(N)n[nH]c(=O)c23)C1 | DOHH2 cells | 6.43 |
| C=CC(=O)N1CC[C@@H](c2nn(-c3ccc(Oc4cc(F)cc(F)c4)cc3)c3c(N)n[nH]c(=O)c23)C1 | DOHH2 cells | 7.23 |
| CC#CC(=O)N1CCC[C@@H](c2cn(-c3ccc(Oc4ccccc4)cc3)c3c(N)n[nH]c(=O)c23)C1 | DOHH2 cells | 6.64 |
| C=CC(=O)N1CC[C@@H](c2nn(-c3ccc(Oc4cccc(F)c4F)cc3)c3c(N)n[nH]c(=O)c23)C1 | DOHH2 cells | 6.95 |
